assay-procedure: Cytotoxicity against PBMC
Format: cell-based
reported-conditions: human
measured-property: CC50

Example compounds with recorded CC50:
[[record]]
smiles_data = "Oc1ccc(CN2CCCNCCCNCCNCCC2)c2cccnc12"
measured_property = "CC50"
data_value = "> 10 µM"

[[record]]
smiles_data = "Oc1ccc(CN2CCCNCCN(Cc3ccc(CN4CCCNCCNCCCNCC4)cc3)CCCNCC2)c2cccnc12"
measured_property = "CC50"
data_value = "> 10 µM"


**Query** Find the recorded CC50 belonging to Oc1ccc(CNCc2ccc(CNCc3ccc(O)c4ncccc34)cc2)c2cccnc12 and report it.
**Result** > 10 µM
